These entries and their values trace back to the RNAGym collection of RNA variant scans (doi:10.7554/elife.80360).

B1: Twister Ribozyme (parent)
chain: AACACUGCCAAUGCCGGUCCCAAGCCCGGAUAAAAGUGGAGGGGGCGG

- Variants of: B1
- ASSAY_INFO: self-cleavage, relative activity (ratio to wild type); higher = more cleavage; co-transcriptional
VALUE_TYPE: self-cleavage
// response body must contain only the number

Some variants with recorded self-cleavage:
MUTATION_LABEL	self-cleavage
G16U G17U	0.231
C3U U12C	0.39
A4G G28A	0.58
U6G G7U	0.626
C5U C20A	0.105
G7C G17A	0.0642
A1C G41U	0.199
U31G G44C	0.974
G17U A23C	0.0677
C25U U37A	0.392

QUERY: Look up and state reported self-cleavage for C46A G47A
RESULT: 1.03
